Data provenance is ChEMBL document CHEMBL2331539.

# key: entry, value: metabolised at 2 h
# ASSAY PROCEDURE: Stability of the compound in presence of pepsin (unknown origin) assessed as degradation measured after 120 mins by HPLC analysis
# Assay type: ADME, Homo sapiens
# RECORDED CONDITIONS: read-out: Drug degradation
Square brackets hold non-standard residues; d marks the D form. Peptide text beside a SMILES is read from it. Dap = NC[C@H](N)C(=O)O
State the answer as a number, implicitly in %.

Worked cases, metabolised at 2 h given:
* CC[C@H](C)[C@@H]1NC(=O)[C@H](Cc2ccc(O)cc2)NC(=O)[C@H](CN)NC(=O)CNC(=O)[C@H](CC(N)=O)NC(=O)[C@H](CCC(N)=O)NC1=O (cyclo([Dap]YIQNG)) | -0.41
* NC(=O)CC[C@@H]1NC(=O)[C@H](Cc2ccccc2)NC(=O)[C@H](Cc2ccc(O)cc2)NC(=O)[C@H](Cc2ccc(O)cc2)NC(=O)CNC(=O)[C@H](CC(N)=O)NC1=O (cyclo(FQNGYY)) | 10.2
* NC[C@@H]1NC(=O)CNC(=O)[C@H](CC(N)=O)NC(=O)[C@H](CCC(N)=O)NC(=O)[C@H](Cc2ccccc2)NC(=O)[C@H](Cc2ccc(O)cc2)NC1=O (cyclo([Dap]YFQNG)) | 3.52

Now, please, on to the next molecule.
// query metabolised at 2 h value for entry NC(=O)CC[C@@H]1NC(=O)[C@H](Cc2ccccc2)NC(=O)[C@H](Cc2ccc(O)cc2)NC(=O)[C@@H](N)CSSC[C@@H](C(=O)N2CCC[C@H]2C(=O)N[C@@H](CCCN=C(N)N)C(=O)NCC(N)=O)NC(=O)[C@H](CC(N)=O)NC1=O
78.6

====

Recorded metabolised at 2 h, one value per entry.
# ASSAY PROCEDURE: Stability of the compound in presence of pronase (unknown origin) assessed as degradation measured after 120 mins by HPLC analysis
# Format: ADME
# RECORDED CONDITIONS: read-out: Drug degradation
Square brackets hold non-standard residues; d marks the D form. Peptide text beside a SMILES is read from it. Dap = NC[C@H](N)C(=O)O
Kindly provide the numeric value in % only, without the unit symbol.

These solved cases illustrate the format of a correct answer.
• CC[C@H](C)[C@@H]1NC(=O)[C@H](Cc2ccc(O)cc2)NC(=O)[C@H](CN)NC(=O)CNC(=O)[C@H](CC(N)=O)NC(=O)[C@H](CCC(N)=O)NC1=O (cyclo([Dap]YIQNG)) = 2.99
• NC(=O)CC[C@@H]1NC(=O)[C@H](Cc2ccccc2)NC(=O)[C@H](Cc2ccc(O)cc2)NC(=O)[C@@H](N)CSSC[C@@H](C(=O)N2CCC[C@H]2C(=O)N[C@@H](CCCN=C(N)N)C(=O)NCC(N)=O)NC(=O)[C@H](CC(N)=O)NC1=O = 15.9

Please report the recorded metabolised at 2 h for NC(=O)CC[C@@H]1NC(=O)[C@H](Cc2ccccc2)NC(=O)[C@H](Cc2ccc(O)cc2)NC(=O)[C@H](Cc2ccc(O)cc2)NC(=O)CNC(=O)[C@H](CC(N)=O)NC1=O (cyclo(FQNGYY)) .
50.2

====

# ASSAY PROCEDURE: Stability of the compound in presence of alpha-chymotrypsin (unknown origin) assessed as degradation measured after 360 mins by HPLC analysis
# Assay type: ADME, Homo sapiens
# RECORDED CONDITIONS: read-out: Drug degradation
Square brackets hold non-standard residues; d marks the D form. Peptide text beside a SMILES is read from it. Dap = NC[C@H](N)C(=O)O
Here, each record is paired with measured metabolised at 6 h data.
Number in %, nothing else.

Given the entry NC(=O)CC[C@@H]1NC(=O)[C@H](Cc2ccccc2)NC(=O)[C@H](Cc2ccc(O)cc2)NC(=O)[C@H](Cc2ccc(O)cc2)NC(=O)CNC(=O)[C@H](CC(N)=O)NC1=O (cyclo(FQNGYY)) , report its measured metabolised at 6 h.
24.7

What metabolised at 6 h value was documented for this compound, CC[C@H](C)[C@@H]1NC(=O)[C@H](Cc2ccc(O)cc2)NC(=O)[C@@H](N)CSSC[C@@H](C(=O)N2CCC[C@H]2C(=O)N[C@@H](CC(C)C)C(=O)NCC(N)=O)NC(=O)[C@H](CC(N)=O)NC(=O)[C@H](CCC(N)=O)NC1=O [OXYTOCIN] ?
74.6

Returns the measured metabolised at 6 h for the input compound. Input: NC[C@@H]1NC(=O)CNC(=O)[C@H](CC(N)=O)NC(=O)[C@H](CCC(N)=O)NC(=O)[C@H](Cc2ccccc2)NC(=O)[C@H](Cc2ccc(O)cc2)NC1=O (cyclo([Dap]YFQNG))
20.3

====

# TESTED ON: UniProt:P30518
# Sequence (P30518 whole entry): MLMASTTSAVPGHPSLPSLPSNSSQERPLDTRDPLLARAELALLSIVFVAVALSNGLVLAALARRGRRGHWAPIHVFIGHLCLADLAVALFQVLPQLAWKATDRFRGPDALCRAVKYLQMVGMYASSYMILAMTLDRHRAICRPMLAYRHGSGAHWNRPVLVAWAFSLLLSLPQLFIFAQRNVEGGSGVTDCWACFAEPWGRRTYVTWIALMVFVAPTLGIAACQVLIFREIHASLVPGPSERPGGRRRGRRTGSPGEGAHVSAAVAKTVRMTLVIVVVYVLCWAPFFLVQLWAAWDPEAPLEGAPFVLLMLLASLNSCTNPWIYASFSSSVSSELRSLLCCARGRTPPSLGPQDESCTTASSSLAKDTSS
# ASSAY PROCEDURE: Binding affinity to vasopression V2 receptor (unknown origin) on isolated cell membrane by vasopression competition binding assay
Square brackets hold non-standard residues; d marks the D form. Peptide text beside a SMILES is read from it. Dap = NC[C@H](N)C(=O)O
PARAMETER MEASURED: pIC50
The quantity pIC50 is defined as the negative base-10 logarithm of the molar concentration.

• NC(=O)CC[C@@H]1NC(=O)[C@H](Cc2ccccc2)NC(=O)[C@H](Cc2ccc(O)cc2)NC(=O)[C@H](Cc2ccc(O)cc2)NC(=O)CNC(=O)[C@H](CC(N)=O)NC1=O (cyclo(FQNGYY)) = 5.70

Next up:
For the compound shown here, NC[C@@H]1NC(=O)CNC(=O)[C@H](CC(N)=O)NC(=O)[C@H](CCC(N)=O)NC(=O)[C@H](Cc2ccccc2)NC(=O)[C@H](Cc2ccc(O)cc2)NC1=O (cyclo([Dap]YFQNG)) , give the reported pIC50.
4.99

====

metabolised at 6 h values by entry
# ASSAY PROCEDURE: Stability of the compound in presence of pepsin (unknown origin) assessed as degradation measured after 360 mins by HPLC analysis
# Format: ADME, Homo sapiens
# RECORDED CONDITIONS: read-out: Drug degradation
Square brackets hold non-standard residues; d marks the D form. Peptide text beside a SMILES is read from it. Dap = NC[C@H](N)C(=O)O
Express it in %; write the number only.

These recorded examples may help you get a feel for the data.
- NC(=O)CC[C@@H]1NC(=O)[C@H](Cc2ccccc2)NC(=O)[C@H](Cc2ccc(O)cc2)NC(=O)[C@H](Cc2ccc(O)cc2)NC(=O)CNC(=O)[C@H](CC(N)=O)NC1=O (cyclo(FQNGYY)): 5.23
- CC[C@H](C)[C@@H]1NC(=O)[C@H](Cc2ccc(O)cc2)NC(=O)[C@H](CN)NC(=O)CNC(=O)[C@H](CC(N)=O)NC(=O)[C@H](CCC(N)=O)NC1=O (cyclo([Dap]YIQNG)): 4.66
- NC[C@@H]1NC(=O)CNC(=O)[C@H](CC(N)=O)NC(=O)[C@H](CCC(N)=O)NC(=O)[C@H](Cc2ccccc2)NC(=O)[C@H](Cc2ccc(O)cc2)NC1=O (cyclo([Dap]YFQNG)): 2.08

Now, please, on to the next compound.
If you can, please state the reported metabolised at 6 h value of NC(=O)CC[C@@H]1NC(=O)[C@H](Cc2ccccc2)NC(=O)[C@H](Cc2ccc(O)cc2)NC(=O)[C@@H](N)CSSC[C@@H](C(=O)N2CCC[C@H]2C(=O)N[C@@H](CCCN=C(N)N)C(=O)NCC(N)=O)NC(=O)[C@H](CC(N)=O)NC1=O .
80.1

====

# ASSAY PROCEDURE: Stability of the compound in presence of pronase (unknown origin) assessed as degradation measured after 120 mins by HPLC analysis
# Format: ADME
# RECORDED CONDITIONS: read-out: Drug degradation
Square brackets hold non-standard residues; d marks the D form. Peptide text beside a SMILES is read from it. Dap = NC[C@H](N)C(=O)O
Overview of reported metabolised at 2 h across a group of compounds:
Kindly answer with a numeric value in %, unit omitted.

- NC[C@@H]1NC(=O)CNC(=O)[C@H](CC(N)=O)NC(=O)[C@H](CCC(N)=O)NC(=O)[C@H](Cc2ccccc2)NC(=O)[C@H](Cc2ccc(O)cc2)NC1=O (cyclo([Dap]YFQNG)): 0.323

Consider now this further compound.
Please report the recorded metabolised at 2 h for CC[C@H](C)[C@@H]1NC(=O)[C@H](Cc2ccc(O)cc2)NC(=O)[C@@H](N)CSSC[C@@H](C(=O)N2CCC[C@H]2C(=O)N[C@@H](CC(C)C)C(=O)NCC(N)=O)NC(=O)[C@H](CC(N)=O)NC(=O)[C@H](CCC(N)=O)NC1=O .
96.8

====

Here the recorded metabolised at 1 h is given for each entry.
# ASSAY PROCEDURE: Stability of the compound in presence of pepsin (unknown origin) assessed as degradation measured after 60 mins by HPLC analysis
# Format: ADME, Homo sapiens
# RECORDED CONDITIONS: read-out: Drug degradation
Square brackets hold non-standard residues; d marks the D form. Peptide text beside a SMILES is read from it. Dap = NC[C@H](N)C(=O)O
Form entry: value (%) — number only.

# example entries with known answers
- NC[C@@H]1NC(=O)CNC(=O)[C@H](CC(N)=O)NC(=O)[C@H](CCC(N)=O)NC(=O)[C@H](Cc2ccccc2)NC(=O)[C@H](Cc2ccc(O)cc2)NC1=O (cyclo([Dap]YFQNG)): 0.716
- CC[C@H](C)[C@@H]1NC(=O)[C@H](Cc2ccc(O)cc2)NC(=O)[C@H](CN)NC(=O)CNC(=O)[C@H](CC(N)=O)NC(=O)[C@H](CCC(N)=O)NC1=O (cyclo([Dap]YIQNG)): 2.34
- NC(=O)CC[C@@H]1NC(=O)[C@H](Cc2ccccc2)NC(=O)[C@H](Cc2ccc(O)cc2)NC(=O)[C@@H](N)CSSC[C@@H](C(=O)N2CCC[C@H]2C(=O)N[C@@H](CCCN=C(N)N)C(=O)NCC(N)=O)NC(=O)[C@H](CC(N)=O)NC1=O: 79.8

Shift focus to the following entry.
# lookup: metabolised at 1 h of NC(=O)CC[C@@H]1NC(=O)[C@H](Cc2ccccc2)NC(=O)[C@H](Cc2ccc(O)cc2)NC(=O)[C@H](Cc2ccc(O)cc2)NC(=O)CNC(=O)[C@H](CC(N)=O)NC1=O (cyclo(FQNGYY))
5.39
